ASSAYED SYSTEM: human TAS2R1 (Homo sapiens)
Construct: expressed in transfected cells; host or cells: HEK293T-Gα16gust44
Sequence (Q9NYW7 whole entry): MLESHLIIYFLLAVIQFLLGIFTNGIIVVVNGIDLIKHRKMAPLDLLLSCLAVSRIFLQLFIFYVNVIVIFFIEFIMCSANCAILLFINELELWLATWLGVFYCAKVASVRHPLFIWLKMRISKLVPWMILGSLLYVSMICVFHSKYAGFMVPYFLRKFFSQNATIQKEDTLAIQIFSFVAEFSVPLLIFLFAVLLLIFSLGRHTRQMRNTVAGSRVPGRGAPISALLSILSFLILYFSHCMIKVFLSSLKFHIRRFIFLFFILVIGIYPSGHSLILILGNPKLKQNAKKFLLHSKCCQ
RUN DESCRIPTION: Calcium imaging assay (FLIPR), HEK293T-Gα16gust44 cells transfected with human TAS2R1
Type: cell-based
APPLIED CONDITIONS: Time 155.547 s
RESULT TYPE: RLU (RLU)

1. C[C@H](CCC(=O)O)[C@H]1CC[C@H]2[C@@H]3CC[C@@H]4C[C@H](O)CC[C@]4(C)[C@H]3C[C@H](O)[C@]12C | 317.65
2. C[C@H](CCC(=O)NCCS(=O)(=O)O)[C@H]1CC[C@H]2[C@@H]3CC[C@@H]4C[C@H](O)CC[C@]4(C)[C@H]3CC[C@]12C | 280.988
3. C[C@H](CCC(=O)NCC(=O)O)[C@H]1CC[C@H]2[C@@H]3[C@H](O)C[C@@H]4C[C@H](O)CC[C@]4(C)[C@H]3C[C@H](O)[C@]12C | 291.839
4. C[C@H](CCC(=O)NCCS(=O)(=O)O)[C@H]1CC[C@H]2[C@@H]3[C@H](O)C[C@@H]4C[C@H](O)CC[C@]4(C)[C@H]3C[C@H](O)[C@]12C | 204.711

====

Listing of entries alongside the reported RLU.
ASSAYED SYSTEM: mouse Tas2r105 (Mus musculus, UniProt Q9JKT4)
Construct: expressed in transfected cells; host or cells: HEK293T-Gα16gust44
Sequence (Q9JKT4 whole entry): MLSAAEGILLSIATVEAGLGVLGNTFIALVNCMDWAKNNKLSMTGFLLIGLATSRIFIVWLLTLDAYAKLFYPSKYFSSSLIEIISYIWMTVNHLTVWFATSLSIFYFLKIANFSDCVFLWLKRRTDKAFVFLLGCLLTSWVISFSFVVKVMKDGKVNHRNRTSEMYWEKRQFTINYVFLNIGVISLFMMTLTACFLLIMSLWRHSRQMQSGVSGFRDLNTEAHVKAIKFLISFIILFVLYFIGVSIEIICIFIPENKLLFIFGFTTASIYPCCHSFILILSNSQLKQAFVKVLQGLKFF
RUN DESCRIPTION: Calcium imaging assay (FLIPR), HEK293T-Gα16gust44 cells transfected with mouse Tas2r105
Format: cell-based
APPLIED CONDITIONS: Time 108.781 s
RESULT TYPE: RLU (RLU)

1. C[C@H](CCC(=O)O)[C@H]1CC[C@H]2[C@@H]3[C@H](O)C[C@@H]4C[C@H](O)CC[C@]4(C)[C@H]3C[C@H](O)[C@]12C | 564.279
2. C[C@H](CCC(=O)NCC(=O)O)[C@H]1CC[C@H]2[C@@H]3[C@H](O)C[C@@H]4C[C@H](O)CC[C@]4(C)[C@H]3C[C@H](O)[C@]12C | 492.243
3. C[C@H](CCC(=O)O)[C@H]1CC[C@H]2[C@@H]3CC[C@@H]4C[C@H](O)CC[C@]4(C)[C@H]3CC[C@]12C | 244.356
4. C[C@H](CCC(=O)O)[C@H]1CC[C@H]2[C@@H]3CC[C@@H]4C[C@H](O)CC[C@]4(C)[C@H]3C[C@H](O)[C@]12C | 142.084

====

Listing of entries alongside the reported RLU.
ASSAYED SYSTEM: human TAS2R14 (Homo sapiens)
Construct: expressed in transfected cells; host or cells: HEK293T-Gα16gust44
Sequence (Q9NYV8 1-317): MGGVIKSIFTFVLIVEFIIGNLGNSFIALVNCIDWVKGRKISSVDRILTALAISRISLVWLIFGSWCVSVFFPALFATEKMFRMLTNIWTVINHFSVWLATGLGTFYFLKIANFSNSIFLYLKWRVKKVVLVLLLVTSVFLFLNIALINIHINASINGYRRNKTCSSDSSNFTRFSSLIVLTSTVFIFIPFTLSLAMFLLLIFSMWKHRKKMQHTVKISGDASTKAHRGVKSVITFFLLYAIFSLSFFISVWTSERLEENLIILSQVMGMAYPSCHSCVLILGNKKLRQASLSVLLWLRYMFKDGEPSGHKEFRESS
RUN DESCRIPTION: Calcium imaging assay (FLIPR), HEK293T-Gα16gust44 cells transfected with human TAS2R14
Assay type: cell-based
APPLIED CONDITIONS: TAS2R14 trace; Time (s) 353.578 (Taurocholic Acid 353.563, Chenodeoxycholic Acid 353.546)
RESULT TYPE: RLU (RLU)

1. C[C@H](CCC(=O)NCC(=O)O)[C@H]1CC[C@H]2[C@@H]3[C@H](O)C[C@@H]4C[C@H](O)CC[C@]4(C)[C@H]3C[C@H](O)[C@]12C | 173.027
2. C[C@H](CCC(=O)NCCS(=O)(=O)O)[C@H]1CC[C@H]2[C@@H]3CC[C@@H]4C[C@H](O)CC[C@]4(C)[C@H]3CC[C@]12C | -78.8648
3. C[C@H](CCC(=O)O)[C@H]1CC[C@H]2[C@@H]3[C@H](O)C[C@@H]4C[C@H](O)CC[C@]4(C)[C@H]3CC[C@]12C | 198.762
4. C[C@H](CCC(=O)NCCS(=O)(=O)O)[C@H]1CC[C@H]2[C@@H]3[C@H](O)C[C@@H]4C[C@H](O)CC[C@]4(C)[C@H]3C[C@H](O)[C@]12C | 68.797
5. C[C@H](CCC(=O)O)[C@H]1CC[C@H]2[C@@H]3[C@H](O)C[C@@H]4C[C@H](O)CC[C@]4(C)[C@H]3C[C@H](O)[C@]12C | 37.7794
